Source of measurements: paper PMC8199339

Target: σ2 receptor (Rattus norvegicus, UniProt Q5U3Y7)
Construct: The thawed rat liver membrane preparation; tissue Harlan-Winkelmann, Borchen, Germany (animal organs); host or cells: rat liver membrane homogenate
Sequence (Q5U3Y7 1-176): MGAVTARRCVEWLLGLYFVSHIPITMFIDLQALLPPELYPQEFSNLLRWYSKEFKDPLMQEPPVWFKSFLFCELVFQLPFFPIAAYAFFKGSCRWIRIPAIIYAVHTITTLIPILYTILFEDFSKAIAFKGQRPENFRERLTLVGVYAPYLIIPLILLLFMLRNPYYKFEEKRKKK
Assay: σ2 receptor binding assay, radioligand [3H]di-o-tolylguanidine, rat liver membrane preparation
Settings: test compound concentration of 1 µM
QUANTITY: inhibition at 1 µM (%)
Give bare numbers, in %.

Recorded inhibition at 1 µM, per entry:
COc1ccc(C)cc1NC(=O)OC1CC23CCCCC2(CC(NCc2ccc(N(C)C)cc2)C3)C1 (stereo not drawn) [8-anti-4h] | 0
O=C(NC1CCCCC1)NC1CC23CCCCC2(CCC3)C1 (stereo not drawn) [23b] | 0
COc1ccc(C)cc1NC(=O)NC1CC23CCCCC2(CCC3)C1 (stereo not drawn) [23c] | 0
COc1ccc(NC2CC34CCCCC3(C2)CC(OC(=O)Nc2cc(C)ccc2OC)C4)cc1 (stereo not drawn) [8-anti-4m] | 0
COc1ccc(C)cc1NC(=O)OC1CC23CCCCC2(CC(NCCc2c[nH]c4ccccc24)C3)C1 (stereo not drawn) [8-anti-4k] | 0
COc1ccc(C)cc1NC(=O)OC1CC23CCCCC2(CC(NCc2ccc(OC)c(OC)c2)C3)C1 (stereo not drawn) [8-anti-4b] | 1
O=C(Nc1ccccc1)NC1CC23CCCCC2(CCC3)C1 (stereo not drawn) [23a] | 15
O=C1CC23CCCCC2(C1)CC(NC(=O)Nc1ccc(F)c(F)c1)C3 (stereo not drawn) [syn-25] | 0

inhibition at 1 µM for COc1ccc(C)cc1NC(=O)OC1CC23CCCCC2(CC(NCc2ccc(Cl)c(Cl)c2)C3)C1 (stereo not drawn) [8-anti-4d] is 4
